# MEASUREMENT TARGET: Sphingosine 1-phosphate receptor 3 (Homo sapiens)
# Sequence (Q99500 whole entry): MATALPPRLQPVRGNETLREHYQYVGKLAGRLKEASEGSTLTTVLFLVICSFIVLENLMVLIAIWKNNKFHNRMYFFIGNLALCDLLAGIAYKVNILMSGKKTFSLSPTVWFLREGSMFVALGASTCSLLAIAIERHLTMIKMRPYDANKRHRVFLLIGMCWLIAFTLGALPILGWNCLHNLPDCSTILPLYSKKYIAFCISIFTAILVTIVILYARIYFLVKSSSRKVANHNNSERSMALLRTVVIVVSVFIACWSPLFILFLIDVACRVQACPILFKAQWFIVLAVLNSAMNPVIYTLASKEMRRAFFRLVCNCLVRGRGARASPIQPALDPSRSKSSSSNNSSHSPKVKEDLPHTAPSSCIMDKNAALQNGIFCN
# TEST METHOD NOTES: Displacement of [33P]sphingosine 1 phosphate from human S1P3 receptor expressed in CHO cells
# Assay type: cell-based
PROPERTY LABEL: IC50

[[record]]
compound = "COc1cc(CN2CC(C(=O)O)C2)ccc1OCc1cc(-c2ccccc2)c(C(F)(F)F)s1"
property_label = "IC50"
reported_result = "> 10 µM"

[[record]]
compound = "O=C(O)C1CN(Cc2ccc(-c3noc(-c4cc(-c5ccccc5)c(C(F)(F)F)s4)n3)cc2)C1"
property_label = "IC50"
reported_result = "1 µM (antagonist)"

[[record]]
compound = "FC(F)(F)c1cccc(-c2noc(-c3cc(-c4ccccc4)c(C(F)(F)F)s3)n2)c1"
property_label = "IC50"
reported_result = "> 10 µM"

[[record]]
compound = "CCCCCCCCCCCCC/C=C/[C@@H](O)[C@@H](N)COP(=O)(O)O"
property_label = "IC50"
reported_result = "0.00026 µM (antagonist)"

[[record]]
compound = "CCc1cc(CN2CC(C(=O)O)C2)ccc1OCc1cc(-c2ccccc2)c(C(F)(F)F)s1"
property_label = "IC50"
reported_result = "4.3 µM (antagonist)"

[[record]]
compound = "O=C(O)C1CCN(Cc2ccc(OCc3cc(-c4ccccc4)c(C(F)(F)F)s3)cc2)C1 (centres undefined)"
property_label = "IC50"
reported_result = "1 µM (antagonist)"

[[record]]
compound = "Cc1cc(CN2CC(C(=O)O)C2)cc(C)c1OCc1cc(-c2ccccc2)c(C(F)(F)F)s1"
property_label = "IC50"
reported_result = "10 µM"

[[record]]
compound = "O=C(O)C1CN(Cc2ccc(OCc3cc(-c4ccccc4)c(C(F)(F)F)s3)c(Br)c2)C1"
property_label = "IC50"
reported_result = "> 10 µM"

[[record]]
compound = "CCCCCCCCCc1ccc(CN2CCC(C(=O)O)C2)cc1 (centres undefined)"
property_label = "IC50"
reported_result = "2.1 µM (antagonist)"


----------
Consider the following compounds and their measured Vd readings.
# TEST METHOD NOTES: Volume of distribution at steady state in rhesus monkey at 1 mg/kg, po and 0.5 mg/kg, iv
# Assay type: ADME, organism-based, Macaca mulatta
# SETTINGS: in vivo, read-out: Vdss
PROPERTY LABEL: Vd (L/kg)

[[record]]
structure_smiles = "O=C(O)C1CN(Cc2ccc(OCc3cc(-c4ccccc4)c(C(F)(F)F)s3)cc2)C1"
property_label = "Vd"
unit_tag = "L/kg"
reported_result = 1.4

[[record]]
structure_smiles = "Cc1cc(CN2CC(C(=O)O)C2)ccc1OCc1cc(-c2ccccc2)c(C(F)(F)F)s1"
property_label = "Vd"
unit_tag = "L/kg"
reported_result = 1.2


----------
# TEST METHOD NOTES: Bioavailability in rat at 2 mg/kg, po and 1 mg/kg, iv
# Assay type: ADME, organism-based
# SETTINGS: in vivo
Consider the following molecules and their measured bioavailability readings.
PROPERTY LABEL: bioavailability (%)

[[record]]
structure_smiles = "O=C(O)C1CN(Cc2ccc(-c3noc(-c4cc(-c5ccccc5)c(C(F)(F)F)s4)n3)cc2)C1"
reported_result = 64

[[record]]
structure_smiles = "Cc1cc(CN2CC(C(=O)O)C2)ccc1OCc1cc(-c2ccccc2)c(C(F)(F)F)s1"
reported_result = 88

[[record]]
structure_smiles = "O=C(O)C1CN(Cc2ccc(OCc3cc(-c4ccccc4)c(C(F)(F)F)s3)c(Cl)c2)C1"
reported_result = 62

[[record]]
structure_smiles = "O=C(O)C1CN(Cc2ccc(OCc3cc(-c4ccccc4)c(C(F)(F)F)s3)cc2)C1"
reported_result = 79


----------
# TEST METHOD NOTES: Plasma concentration in Lewis rat at 30 mg/kg, po after 24 hrs
# Format: ADME, organism-based
# Set-up: dose 30 mg/kg, route oral
PROPERTY LABEL: concentration at 24 h (nM)

[[record]]
structure_smiles = "O=C(O)C1CN(Cc2ccc(OCc3cc(-c4ccccc4)c(C(F)(F)F)s3)cc2)C1"
unit_tag = "nM"
reported_result = 1400


----------
# TEST METHOD NOTES: Plasma concentration in femoral artery cannulated Lewis rat at 3 mg/kg, po after 0.5 hrs
# Assay type: ADME, organism-based
# Set-up: dose 3 mg/kg, route oral
PROPERTY LABEL: concentration at 0.5 h (nM)

[[record]]
structure_smiles = "O=C(O)C1CN(Cc2ccc(OCc3cc(-c4ccccc4)c(C(F)(F)F)s3)cc2)C1"
reported_result = 200


----------
# TEST METHOD NOTES: Plasma concentration in femoral artery cannulated Lewis rat at 3 mg/kg, po after 8 hrs
# Assay type: ADME, organism-based
# Set-up: dose 3 mg/kg, route oral
PROPERTY LABEL: concentration at 8 h (nM)

[[record]]
structure_smiles = "O=C(O)C1CN(Cc2ccc(OCc3cc(-c4ccccc4)c(C(F)(F)F)s3)cc2)C1"
property_label = "concentration at 8 h"
unit_tag = "nM"
reported_result = 310


----------
# TEST METHOD NOTES: Half life in rhesus monkey at 1 mg/kg, po and 0.5 mg/kg, iv
# SETTINGS: in vivo
Consider the following molecules and their measured half-life readings.
PROPERTY LABEL: half-life (h)

[[record]]
structure_smiles = "Cc1cc(CN2CC(C(=O)O)C2)ccc1OCc1cc(-c2ccccc2)c(C(F)(F)F)s1"
property_label = "half-life"
unit_tag = "h"
reported_result = 12.6

[[record]]
structure_smiles = "O=C(O)C1CN(Cc2ccc(OCc3cc(-c4ccccc4)c(C(F)(F)F)s3)cc2)C1"
property_label = "half-life"
unit_tag = "h"
reported_result = 12.5


----------
# TEST METHOD NOTES: Plasma concentration in Lewis rat at 10 mg/kg, po after 24 hrs
# Type: ADME, organism-based
# Parameters: dose 10 mg/kg, route oral
PROPERTY LABEL: concentration at 24 h (nM)

[[record]]
structure_smiles = "O=C(O)C1CN(Cc2ccc(OCc3cc(-c4ccccc4)c(C(F)(F)F)s3)cc2)C1"
property_label = "concentration at 24 h"
reported_result = 370


----------
# TEST METHOD NOTES: Plasma concentration in Lewis rat at 1 mg/kg, po after 24 hrs
# Type: ADME, organism-based
# Design: dose 1 mg/kg, route oral
PROPERTY LABEL: concentration at 24 h (nM)

[[record]]
structure_smiles = "O=C(O)C1CN(Cc2ccc(OCc3cc(-c4ccccc4)c(C(F)(F)F)s3)cc2)C1"
property_label = "concentration at 24 h"
unit_tag = "nM"
reported_result = 22


----------
# MEASUREMENT TARGET: Sphingosine 1-phosphate receptor 5 (Homo sapiens)
# Sequence (Q9H228 whole entry): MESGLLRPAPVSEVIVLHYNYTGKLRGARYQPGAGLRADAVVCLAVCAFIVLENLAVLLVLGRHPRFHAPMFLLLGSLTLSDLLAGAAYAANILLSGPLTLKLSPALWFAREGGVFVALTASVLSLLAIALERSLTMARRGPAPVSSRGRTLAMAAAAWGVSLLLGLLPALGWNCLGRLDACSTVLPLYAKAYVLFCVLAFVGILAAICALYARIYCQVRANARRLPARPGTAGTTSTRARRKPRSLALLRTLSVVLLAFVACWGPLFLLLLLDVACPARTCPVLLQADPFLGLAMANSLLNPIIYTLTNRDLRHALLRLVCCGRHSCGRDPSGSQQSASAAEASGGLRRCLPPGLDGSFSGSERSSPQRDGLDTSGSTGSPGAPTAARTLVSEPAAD
# TEST METHOD NOTES: Displacement of [33P]sphingosine 1 phosphate from human S1P5 receptor expressed in CHO cells
# Type: cell-based
PROPERTY LABEL: IC50

[[record]]
molecule = "COc1cc(CN2CC(C(=O)O)C2)ccc1OCc1cc(-c2ccccc2)c(C(F)(F)F)s1"
reported_result = "77 nM (antagonist)"

[[record]]
molecule = "O=C(O)C1CN(Cc2cc(Cl)c(OCc3cc(-c4ccccc4)c(C(F)(F)F)s3)c(Cl)c2)C1"
reported_result = "33 nM (antagonist)"

[[record]]
molecule = "Cc1cc(CN2CC(C(=O)O)C2)ccc1OCc1cc(-c2ccccc2)c(C(F)(F)F)s1"
reported_result = "13 nM (antagonist)"

[[record]]
molecule = "CCc1cc(CN2CC(C(=O)O)C2)ccc1OCc1cc(-c2ccccc2)c(C(F)(F)F)s1"
reported_result = "10 nM (antagonist)"

[[record]]
molecule = "O=C(O)C1CN(Cc2ccc(-c3noc(-c4cc(-c5ccccc5)c(C(F)(F)F)s4)n3)cc2)C1"
reported_result = "16 nM (antagonist)"

[[record]]
molecule = "CCCCCCCCCc1ccc(CN2CCC(C(=O)O)C2)cc1 (centres undefined)"
reported_result = "29 nM (antagonist)"

[[record]]
molecule = "Cc1cc(CN2CC(C(=O)O)C2)cc(C)c1OCc1cc(-c2ccccc2)c(C(F)(F)F)s1"
reported_result = "12 nM (antagonist)"

[[record]]
molecule = "CCCCCCCCCc1ccc(CN2CC(C(=O)O)C2)cc1"
reported_result = "11 nM (antagonist)"

[[record]]
molecule = "O=C(O)C1CN(Cc2ccc(OCc3cc(-c4ccccc4)c(C(F)(F)F)s3)cc2)C1"
reported_result = "23 nM (antagonist)"

[[record]]
molecule = "FC(F)(F)c1sc(-c2nc(-c3ccccc3)no2)cc1-c1ccccc1"
reported_result = "> 10000 nM"

[[record]]
molecule = "CCCCCCCCCc1ccc(CN2CCC(P(=O)(O)O)C2)cc1 (centres undefined)"
reported_result = "6.3 nM (antagonist)"

[[record]]
molecule = "O=C(O)C1CCN(Cc2ccc(OCc3cc(-c4ccccc4)c(C(F)(F)F)s3)cc2)C1 (centres undefined)"
reported_result = "120 nM (antagonist)"

[[record]]
molecule = "O=C(O)C1CN(Cc2ccc(OCc3cc(-c4ccccc4)c(C(F)(F)F)s3)c(Cl)c2)C1"
reported_result = "18 nM (antagonist)"

[[record]]
molecule = "O=C(O)C1CN(Cc2ccc(OCc3cc(-c4ccccc4)c(C(F)(F)F)s3)c(F)c2)C1"
reported_result = "41 nM (antagonist)"

[[record]]
molecule = "FC(F)(F)c1sc(-c2nc(-c3ccc(Cl)cc3Cl)no2)cc1-c1ccccc1"
reported_result = "> 10000 nM"

[[record]]
molecule = "CCCCCCCCc1ccc(CCC(N)(CO)CO)cc1 [FINGOLIMOD]"
reported_result = "2100 nM (antagonist)"

[[record]]
molecule = "O=C(O)C1CN(Cc2ccc(OCc3cc(-c4ccccc4)c(C(F)(F)F)s3)c(C(F)(F)F)c2)C1"
reported_result = "21 nM (antagonist)"

[[record]]
molecule = "FC(F)(F)c1cccc(-c2noc(-c3cc(-c4ccccc4)c(C(F)(F)F)s3)n2)c1"
reported_result = "4600 nM (antagonist)"

[[record]]
molecule = "O=C(O)C1CN(Cc2ccc(OCc3cc(-c4ccccc4)c(C(F)(F)F)s3)c(Br)c2)C1"
reported_result = "53 nM (antagonist)"

